# subject_of_test: oestrone sulphatase (E1-STS) (Homo sapiens, UniProt P08842)
# assay_summary: Inhibition of steroid sulphatase (E1-STS) activity in intact MCF-7 breast cancer cells
# Type: cell-based
# test_settings: 10 μM
measured_metric: % Inhibition of E1-STS activity in MCF-7 cells (%)
// return numeric value only (unit: %, not printed)

NS(=O)(=O)Oc1cccc(C(=O)c2cccc(O)c2)c1 [Compound 29, 3′-hydroxybenzophenone-3-O-sulphamate]	87.2
NS(=O)(=O)Oc1ccc(C(=O)c2ccccc2)cc1 [Compound 6, Benzophenone-4-O-sulphamate]	87.89
NS(=O)(=O)Oc1ccc(C23CC4CC(C2)CC(c2ccc(OS(N)(=O)=O)cc2)(C4)C3)cc1	90.1

Now turn to the next molecule.
Output measured % Inhibition of E1-STS activity in MCF-7 cells for this item: NS(=O)(=O)Oc1ccc(Sc2ccc(O)cc2)cc1 [Compound 16, 4′-hydroxy-thiodiphenyl-4-O-sulphamate] 97.7

* * *

Here, each record is paired with measured % Inhibition of E1-STS activity in MCF-7 cells data.
# subject_of_test: oestrone sulphatase (E1-STS) (Homo sapiens)
# assay_summary: Inhibition of steroid sulphatase (E1-STS) activity in intact MCF-7 breast cancer cells
# Assay type: cell-based
# test_settings: 1 μM

Known results for compounds:
NS(=O)(=O)Oc1ccc(Sc2ccc(O)cc2)cc1 [Compound 16, 4′-hydroxy-thiodiphenyl-4-O-sulphamate]	83.9 ± 1.2%
NS(=O)(=O)Oc1ccc(C(=O)c2ccccc2)cc1 [Compound 6, Benzophenone-4-O-sulphamate]	33.04 ± 10.68%

Now turn to the next compound.
Output measured % Inhibition of E1-STS activity in MCF-7 cells for this item: NS(=O)(=O)Oc1ccc(C(=O)C=Cc2ccccc2)cc1 [Compound 8, Chalcone-4′-O-sulphamate] 33.04 ± 10.68%

* * *

# subject_of_test: oestrone sulphatase (E1-STS) (Homo sapiens, UniProt P08842)
# Sequence (P08842 22-583): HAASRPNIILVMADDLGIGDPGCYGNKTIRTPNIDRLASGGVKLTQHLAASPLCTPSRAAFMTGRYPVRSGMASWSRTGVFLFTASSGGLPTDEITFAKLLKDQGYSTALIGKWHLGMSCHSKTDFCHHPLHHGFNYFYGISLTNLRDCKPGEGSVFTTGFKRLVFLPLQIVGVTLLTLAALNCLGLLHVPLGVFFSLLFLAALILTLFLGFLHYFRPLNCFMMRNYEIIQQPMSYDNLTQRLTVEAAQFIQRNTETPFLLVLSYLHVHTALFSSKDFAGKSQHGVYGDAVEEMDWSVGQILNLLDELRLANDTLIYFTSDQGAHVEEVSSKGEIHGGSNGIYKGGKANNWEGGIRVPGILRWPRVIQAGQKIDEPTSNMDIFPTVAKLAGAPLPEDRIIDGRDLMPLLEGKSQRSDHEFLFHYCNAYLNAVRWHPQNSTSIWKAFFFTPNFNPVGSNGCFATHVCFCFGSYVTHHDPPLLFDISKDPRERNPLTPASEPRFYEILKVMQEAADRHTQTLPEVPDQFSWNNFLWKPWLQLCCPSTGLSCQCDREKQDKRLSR
# assay_summary: Inhibition of steroid sulphatase activity in placental microsomes
# Format: biochemical
# Set-up: from tissue; host or cells: human term placenta (microsomal preparation)
# test_settings: 25 µM
Label scheme for % Inhibition of E1-STS activity in placental microsomes: low bracket: < 30%; middle bracket: ≥ 30% and < 80%; high bracket: ≥ 80%

Here are 9 compounds together with their reported answers.
NS(=O)(=O)Oc1ccc(Cc2ccc(O)cc2)cc1	low bracket
NS(=O)(=O)Oc1ccc(C23CC4CC(C2)CC(c2ccc(OS(N)(=O)=O)cc2)(C4)C3)cc1	middle bracket
NS(=O)(=O)Oc1ccc(Sc2ccc(O)cc2)cc1 [Compound 16, 4′-hydroxy-thiodiphenyl-4-O-sulphamate]	middle bracket
NS(=O)(=O)Oc1ccc2c(c1)C(=O)c1ccc(OS(N)(=O)=O)cc1C2=O [Compound 10, Anthraquinone-2,6-O,O-bis-sulphamate]	high bracket
NS(=O)(=O)Oc1ccc2c(c1)C(=O)c1ccc(O)cc1C2=O [Compound 11, 2-hydroxyanthraquinone-6-O-sulphamate]	high bracket
NS(=O)(=O)Oc1ccc(C23CC4CC(CC(c5ccc(O)cc5)(C4)C2)C3)cc1	low bracket
NS(=O)(=O)Oc1cccc(C(=O)c2cccc(OS(N)(=O)=O)c2)c1 [Compound 28, Benzophenone-3,3′-O,O-bis-sulphamate]	middle bracket
Oc1ccc(C(O)(c2ccc(O)cc2)C2CCCCC2)cc1	low bracket
NS(=O)(=O)Oc1ccc(S(=O)(=O)c2ccc(OS(N)(=O)=O)cc2)cc1	high bracket

Classify this compound: NS(=O)(=O)Oc1ccc2oc3ccccc3c2c1 [Compound 9, Dibenzofuran-2-O-sulphamate] middle bracket

* * *

# subject_of_test: UniProtKB P08842
# assay_summary: Inhibition of steroid sulphatase activity in placental microsomes
# Assay type: biochemical
# Parameters: from tissue; host or cells: human term placenta (microsomal preparation)
# test_settings: 50 µM
Here, each record is paired with measured % Inhibition of E1-STS activity in placental microsomes data.
// return numeric value only (unit: %, not printed)

NS(=O)(=O)Oc1ccc(C=CC(=O)c2ccccc2)cc1 [Compound 7, Chalcone-4-O-sulphamate]	75.11
Oc1ccc(C(O)(c2ccc(O)cc2)C2CCCCC2)cc1	33.4
NS(=O)(=O)Oc1ccc(C(=O)C=Cc2ccccc2)cc1 [Compound 8, Chalcone-4′-O-sulphamate]	75.79
NS(=O)(=O)Oc1cccc(C(=O)c2cccc(O)c2)c1 [Compound 29, 3′-hydroxybenzophenone-3-O-sulphamate]	43.7
NS(=O)(=O)Oc1cccc(C(=O)c2cccc(OS(N)(=O)=O)c2)c1 [Compound 28, Benzophenone-3,3′-O,O-bis-sulphamate]	84.1

Provide the reported % Inhibition of E1-STS activity in placental microsomes (system: UniProtKB P08842) for NS(=O)(=O)Oc1ccc(Sc2ccc(O)cc2)cc1 [Compound 16, 4′-hydroxy-thiodiphenyl-4-O-sulphamate] 64.7

Provide the reported % Inhibition of E1-STS activity in placental microsomes (system: UniProtKB P08842) for NS(=O)(=O)Oc1ccc(C(=O)c2ccc(OS(N)(=O)=O)cc2)cc1 [Compound 3, Benzophenone-4,4′-O,O-bis-sulphamate] 99.03

* * *

# subject_of_test: oestrone sulphatase (E1-STS) (Homo sapiens)
# assay_summary: Inhibition of steroid sulphatase activity in placental microsomes
# Type: biochemical
# Design: from tissue; host or cells: human term placenta (microsomal preparation)
# test_settings: 10 μM
measured_metric: % Inhibition of E1-STS activity in placental microsomes (%)
// return numeric value only (unit: %, not printed)

NS(=O)(=O)Oc1ccc(C=CC(=O)c2ccccc2)cc1 [Compound 7, Chalcone-4-O-sulphamate]	47.41
NS(=O)(=O)Oc1cccc(C(=O)c2cccc(OS(N)(=O)=O)c2)c1 [Compound 28, Benzophenone-3,3′-O,O-bis-sulphamate]	51.1
NS(=O)(=O)Oc1ccc2oc3ccccc3c2c1 [Compound 9, Dibenzofuran-2-O-sulphamate]	28.8
NS(=O)(=O)Oc1ccc(C(=O)C=Cc2ccccc2)cc1 [Compound 8, Chalcone-4′-O-sulphamate]	71.27
NS(=O)(=O)Oc1cccc(C(=O)c2cccc(O)c2)c1 [Compound 29, 3′-hydroxybenzophenone-3-O-sulphamate]	18.8

Now turn to the next compound.
Output measured % Inhibition of E1-STS activity in placental microsomes for this item: NS(=O)(=O)Oc1ccc(C(=O)c2ccc(OS(N)(=O)=O)cc2)cc1 [Compound 3, Benzophenone-4,4′-O,O-bis-sulphamate] 98.17

* * *

# assay_summary: physchem
measured_metric: pKa
Reply with the value as a number alone.

Output measured pKa for this item: Oc1ccc(Cc2ccc(O)cc2)cc1 [bis-(4-hydroxyphenyl)methane] 11

* * *

# subject_of_test: oestrone sulphatase (E1-STS) (Homo sapiens)
# assay_summary: Inhibition of steroid sulphatase (E1-STS) activity in intact MCF-7 breast cancer cells
# Format: cell-based
# test_settings: 0.1 μM
Here, each record is paired with measured % Inhibition of E1-STS activity in MCF-7 cells data.
// return numeric value only (unit: %, not printed)

Known results for compounds:
NS(=O)(=O)Oc1ccc(Sc2ccc(O)cc2)cc1 [Compound 16, 4′-hydroxy-thiodiphenyl-4-O-sulphamate]	26.6
NS(=O)(=O)Oc1ccc2c3c(oc2c1)C(=O)c1ccccc1C3=O [Compound 13]	46.6
NS(=O)(=O)Oc1ccc(Sc2ccc(OS(N)(=O)=O)cc2)cc1 [Compound 15, Thiodiphenyl-4,4′O,O-bis-sulphamate]	67.2
NS(=O)(=O)Oc1ccc2c(c1)C(=O)c1ccc(O)cc1C2=O [Compound 11, 2-hydroxyanthraquinone-6-O-sulphamate]	99.3

Now turn to the next compound.
Output measured % Inhibition of E1-STS activity in MCF-7 cells for this item: NS(=O)(=O)Oc1ccc(C23CC4CC(C2)CC(c2ccc(OS(N)(=O)=O)cc2)(C4)C3)cc1 [Compound 20] 16.1

* * *

Here, each record is paired with measured inhibition at 1 µM data.
# assay_summary: Plate assay % inhibition
# Assay type: cell-based
# test_settings: 1 μM; -ve % means stimulation
Answer format: number, then unit.

CC(=O)NS(=O)(=O)O[C@H]1CCC2C3CCc4cc(OS(N)(=O)=O)ccc4C3CC[C@@]21C (some centres unmarked) [BLE99065]	5%
C[C@]12CCC3c4ccc(O)cc4CCC3C1CC[C@H]2OS(=O)(=O)N(Cc1ccccc1)Cc1ccccc1 (some centres unmarked) [BLE99066]	5%
C[C@]12CCC3c4ccc(OS(N)(=O)=O)cc4CCC3C1CC[C@H]2OS(=O)(=O)N(Cc1ccccc1)Cc1ccccc1 (some centres unmarked) [BLE99068]	-1%
CN(C)S(=O)(=O)O[C@H]1CCC2C3CCc4cc(O)ccc4C3CC[C@@]21C (some centres unmarked) [BLE99067]	-1%
CC12CCC3c4ccc(OS(N)(=O)=O)cc4CCC3C1CCC2OS(N)(=O)=O (centres unmarked) [BLE99031B]	12%

Output measured inhibition at 1 µM for this item: COc1cc2c(cc1OS(N)(=O)=O)CCC1C2CCC2(C)C1CCC2(O)Cc1ccccc1 (centres unmarked) [BLE01018] -12%

Output measured inhibition at 1 µM for this item: COc1cc2c(cc1OS(N)(=O)=O)CCC1C2CCC2(C)C1CCC2(O)Cc1ccc(C(C)(C)C)cc1 (centres unmarked) [BLE01016] -10%

Output measured inhibition at 1 µM for this item: CC1=C2CCC3c4ccc(OS(N)(=O)=O)cc4CCC3C2CC1 (centres unmarked) [BLE00086] 3%
